Target: human CB1 receptor (Homo sapiens)
Sequence (P21554 whole entry): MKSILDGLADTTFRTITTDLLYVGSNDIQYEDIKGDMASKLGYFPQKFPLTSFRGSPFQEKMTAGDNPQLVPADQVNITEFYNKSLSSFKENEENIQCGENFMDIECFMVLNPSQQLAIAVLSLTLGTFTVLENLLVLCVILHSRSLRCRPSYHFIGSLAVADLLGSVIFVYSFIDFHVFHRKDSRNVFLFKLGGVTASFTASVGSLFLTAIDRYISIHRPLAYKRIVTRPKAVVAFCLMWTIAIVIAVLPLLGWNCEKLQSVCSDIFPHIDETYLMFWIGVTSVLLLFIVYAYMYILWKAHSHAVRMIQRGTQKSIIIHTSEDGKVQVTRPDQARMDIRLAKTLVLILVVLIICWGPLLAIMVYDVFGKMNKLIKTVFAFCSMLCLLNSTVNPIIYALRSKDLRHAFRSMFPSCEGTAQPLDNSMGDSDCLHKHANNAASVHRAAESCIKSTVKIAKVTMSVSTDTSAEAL
Experiment: Human CB1 receptor binding, [3H] CP-55,940 displacement on HEK cell membranes
Design: expressed in transfected cells; host or cells: HEK cells, doxycycline-induced; membrane preparation
Details: read-out: CB1 Ki
Experimental: The Human CB1 receptor binding affinity and other biological activities of the compounds of this invention are determined by the following procedures. […] Protein concentration was determined using the Micro-BCA Protein Assay Kit (Pierce, Rockford, Ill.) using BSA as a standard. […] Binding experiments: 50 μl of test compound was incubated with 50 μl of [^3H] […] Nonspecific binding was determined by incubation with 50 μM WIN-55, 212-2 (Tocris, Ellisville, Mo.). […]
pKi: −log10 of the molar value.
Overview of recorded pKi for various molecules

Illustrative cases are given below, each with its answer.
{"molecule": "CC(C)(C)[C@H](NC(=O)c1nn(Cc2ccc(C#N)cc2F)c2ccccc12)C(=O)NCCN1CCNC(=O)C1", "pKi": "< 6.40"}
{"molecule": "CCOC(=O)c1ccc(Cn2nc(C(=O)N[C@H](C(=O)NCCO)C(C)(C)C)c3ccccc32)c(F)c1", "pKi": "< 6.40"}

Noted for CC(C)(C)[C@H](NC(=O)c1nn(Cc2ccc(F)cc2)c2ccccc12)C(=O)NCC(=O)N(CCO)CCO : its pKi reads < 6.40

Entry under test: CC(C)(C)[C@H](NC(=O)c1nn(Cc2ccc(F)cc2)c2ccccc12)C(=O)N1CCC[C@H]1C(=O)NC[C@H](O)CO . Its pKi was < 6.40

---

Each entry below carries its reported Ki.
molecular target: human CB1 receptor (Homo sapiens); assay: Human CB1 receptor binding, [3H] CP-55,940 displacement on HEK cell membranes; design: expressed in transfected cells; host or cells: HEK cells, doxycycline-induced; membrane preparation; conditions: read-out: CB1 Ki
Answer format: numeric, nM implied, no suffix.

Take a look at these entries with their results.
{"molecule": "CN1CC(CNC(=O)[C@@H](NC(=O)c2nn(Cc3ccc(C#N)cc3)c3cc(F)ccc23)C(C)(C)C)CC1=O (stereo partly drawn)", "Ki [nM]": 104}
{"molecule": "CCN(CC)C[C@@H](O)CNC(=O)[C@@H](NC(=O)c1nn(Cc2ccc(F)cc2)c2ccccc12)C(C)(C)C", "Ki [nM]": 301}
{"molecule": "COc1cc(CNC(=O)[C@@H](NC(=O)c2nn(Cc3ccc(C#N)cc3)c3c(F)cccc23)C(C)(C)C)on1", "Ki [nM]": 178}
{"molecule": "Cc1cc(O)nc(CNC(=O)[C@@H](NC(=O)c2nn(Cc3ccc(C#N)cc3)c3c(F)cccc23)C(C)(C)C)n1", "Ki [nM]": 101}

For reference, reported Ki for CC(C)(C)[C@H](NC(=O)c1nn(Cc2ccc(F)cc2)c2ccccc12)C(=O)NCc1[nH]nc2c1CCC2 stands at 24.6

# molecule CC(C)(O)C1CCN(C(=O)[C@@H](NC(=O)c2nn(Cc3ccc(F)cc3)c3ccccc23)C(C)(C)C)CC1 ; its Ki = 3.43

In plain terms, CC(C)(C)[C@H](NC(=O)c1nn(Cc2ccc(F)cc2)c2ccccc12)C(=O)NCCc1nnc(C(N)=O)o1 has a documented Ki of 2.25

// sample COc1cccc(C2(NC(=O)[C@@H](NC(=O)c3nn(Cc4ccc(C#N)cc4)c4c(F)cccc34)C(C)(C)C)CC2)c1 , its Ki was 52.1
